Assign abundance fitness to each entry below.
B1: Ventral anterior homeobox 1, residues 102 to 157; numbered along this chain, Q5SQQ9 (parent)
chain: RTRTSFTAEQLYRLEMEFQRCQYVVGRERTELARQLNLSETQVKVWFQNRRTKQKK

- Variants of: B1
- ASSAY OVERVIEW: abundance fitness (aPCA) (normalised: wild type 0, dead -1); higher = more abundant; growth selection in yeast, the domain comes from the species named
- CONDITIONS: Homo sapiens
// print number alone

Exercise: Name the recorded abundance fitness of the item R50E in your answer.
Key: 0.009

Exercise: Name the recorded abundance fitness of the item K56R in your answer.
Key: -0.127

Exercise: Name the recorded abundance fitness of the item N49K in your answer.
Key: -0.022

Exercise: Name the recorded abundance fitness of the item V25Q in your answer.
Key: 0.121

Exercise: Name the recorded abundance fitness of the item R3L in your answer.
Key: 0.156

Exercise: Name the recorded abundance fitness of the item E28C in your answer.
Key: -0.412

Exercise: Name the recorded abundance fitness of the item V25P in your answer.
Key: -0.29

Exercise: Name the recorded abundance fitness of the item T7F in your answer.
Key: -0.77

Exercise: Name the recorded abundance fitness of the item Q48T in your answer.
Key: -0.076

Exercise: Name the recorded abundance fitness of the item K56V in your answer.
Key: 0.005

Exercise: Name the recorded abundance fitness of the item K53G in your answer.
Key: -0.037

Exercise: Name the recorded abundance fitness of the item R51Q in your answer.
Key: 0.049

Exercise: Name the recorded abundance fitness of the item T2N in your answer.
Key: 0.271

Exercise: Name the recorded abundance fitness of the item V43S in your answer.
Key: -0.561

Exercise: Name the recorded abundance fitness of the item R20T in your answer.
Key: -0.305

Exercise: Name the recorded abundance fitness of the item Y12C in your answer.
Key: -0.176

Exercise: Name the recorded abundance fitness of the item R13K in your answer.
Key: -0.004

Exercise: Name the recorded abundance fitness of the item T4N in your answer.
Key: 0.033

Exercise: Name the recorded abundance fitness of the item T2W in your answer.
Key: -0.566

Exercise: Name the recorded abundance fitness of the item E17K in your answer.
Key: -0.604

Exercise: Name the recorded abundance fitness of the item R27G in your answer.
Key: 0.003

Exercise: Name the recorded abundance fitness of the item F18C in your answer.
Key: -0.741
